# Tested on: 677734-321-R-J1-PDC complex spheroid viability
# assay_method_text: Anticancer human tumor 677734-321-R-J1-PDC patient-derived soft tissue sarcoma cell line growth inhibition [POLQ]
# test_conditions: second compound 0.0316 µM; first compound 3.16 µM; stronger effect = lower value
quantity_measured: viability, T/C (%)
// note: answer is a bare numeric in %

Example molecules with recorded viability, T/C:
{"molecule": "CNCc1ccc(-c2[nH]c3cc(F)cc4c3c2CCNC4=O)cc1 + Nc1ccc(C#CCN(C(=O)Cc2ncc(C(F)(F)F)cc2C(F)(F)F)c2ccc(F)cc2)nn1", "viability, T/C [%]": 101}
{"molecule": "C=CC(=O)N1CCN(c2nc(=O)n(-c3c(C)ccnc3C(C)C)c3nc(-c4c(O)cccc4F)c(F)cc23)C(C)C1 (stereo not drawn) + Cc1cccc(N(C)C(=O)C2C(O)CCN2c2nc(C)cc(C(F)(F)F)c2C#N)c1", "viability, T/C [%]": 110}

Returns the measured viability, T/C for the input molecule. Input: COc1cc2cc(C(=O)CCC(=O)O)sc2cc1OC + Cc1cccc(N(C)C(=O)C2C(O)CCN2c2nc(C)cc(C(F)(F)F)c2C#N)c1
110

====

# Test system: 677734-321-R-J1-PDC complex spheroid viability
# assay_method_text: Anticancer human tumor 677734-321-R-J1-PDC cell line growth inhibition [POLQ]; active = viability on the fitted dose curve at most 10% of control; inactive = the rest;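 note: spheroids exposed to compounds for one week; 100% = vehicle DMSO treated spheroids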
# test_conditions: second compound 1 µM; first compound 0.0316 µM
Choose one outcome from this list and give only that: label 1 for active, label 0 for inactive

For orientation, consider the following solved cases.
{"molecule": "CC(C)n1c(=O)n(C)c2cnc3cc(F)c(-c4ccc(OCCCN5CCCCC5)nc4)cc3c21 + COC1C(OC(N)=O)C(O)C(Oc2ccc3c(O)c(NC(=O)c4ccc(O)c(CC=C(C)C)c4)c(=O)oc3c2C)OC1(C)C", "group_label": "label 0"}
{"molecule": "CCc1cc2c(N3CCc4c(cc(Cn5ccnc5)cc4-c4cn(C)nc4C(F)(F)F)C3=O)ccnc2c(OC)n1 + Cc1cccc(N(C)C(=O)C2C(O)CCN2c2nc(C)cc(C(F)(F)F)c2C#N)c1", "group_label": "label 0"}
{"molecule": "COc1cc(C2c3cc4c(cc3C(OC3OC5COC(C)OC5C(O)C3O)C3COC(=O)C23)OCO4)cc(OC)c1O (stereo unspecified) + Nc1ccc(C#CCN(C(=O)Cc2ncc(C(F)(F)F)cc2C(F)(F)F)c2ccc(F)cc2)nn1", "group_label": "label 0"}
{"molecule": "C=CCn1c(=O)c2cnc(Nc3ccc(N4CCN(C)CC4)cc3)nc2n1-c1cccc(C(C)(C)O)n1 + Cc1cccc(N(C)C(=O)C2C(O)CCN2c2nc(C)cc(C(F)(F)F)c2C#N)c1", "group_label": "label 0"}
{"molecule": "CCc1c2c(nc3ccc(O)cc13)-c1cc3c(c(=O)n1C2)COC(=O)[C@]3(O)CC + COC1C(OC(N)=O)C(O)C(Oc2ccc3c(O)c(NC(=O)c4ccc(O)c(CC=C(C)C)c4)c(=O)oc3c2C)OC1(C)C", "group_label": "label 1"}
{"molecule": "COc1cc2cc(C(=O)CCC(=O)O)sc2cc1OC + COC1C(OC(N)=O)C(O)C(Oc2ccc3c(O)c(NC(=O)c4ccc(O)c(CC=C(C)C)c4)c(=O)oc3c2C)OC1(C)C", "group_label": "label 0"}

Hi, sorry to bother you, what did the test record for Nc1ccn(C2OC(CO)C(O)C2(F)F)c(=O)n1 (stereo unspecified) + COC1C(OC(N)=O)C(O)C(Oc2ccc3c(O)c(NC(=O)c4ccc(O)c(CC=C(C)C)c4)c(=O)oc3c2C)OC1(C)C ?
label 0

Would you mind telling me which call this test gave O=c1[nH]cc(F)c(=O)[nH]1 + Nc1ccc(C#CCN(C(=O)Cc2ncc(C(F)(F)F)cc2C(F)(F)F)c2ccc(F)cc2)nn1 ?
label 0

Could you check what this test reported for CC[C@@]1(O)C(=O)OCc2c1cc1n(c2=O)Cc2cc3c(CN(C)C)c(O)ccc3nc2-1 + COC1C(OC(N)=O)C(O)C(Oc2ccc3c(O)c(NC(=O)c4ccc(O)c(CC=C(C)C)c4)c(=O)oc3c2C)OC1(C)C ?
label 0

How did this test come out for COc1ccc([C@@H](O)c2cc(-c3ncnc4cc(N5CCOCC5)ccc34)c(F)cc2Cl)nn1 + Nc1ccc(C#CCN(C(=O)Cc2ncc(C(F)(F)F)cc2C(F)(F)F)c2ccc(F)cc2)nn1 ?
label 0

Kindly provide the recorded test outcome for the following molecule: Nc1ccn(C2OC(CO)C(O)C2(F)F)c(=O)n1 (stereo unspecified) + Nc1ccc(C#CCN(C(=O)Cc2ncc(C(F)(F)F)cc2C(F)(F)F)c2ccc(F)cc2)nn1
label 0

====

# Test system: 677734-321-R-J1-PDC complex spheroid viability
# assay_method_text: Anticancer human tumor 677734-321-R-J1-PDC cell line growth inhibition [POLQ];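 note: spheroids exposed to compounds for one week; 100% = vehicle DMSO treated spheroids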
# test_conditions: second compound 1 µM; first compound 0.0316 µM; stronger effect = lower value
quantity_measured: viability, T/C (%)
Unit % implied. Number only.

{"molecule": "CC(C)n1c(=O)n(C)c2cnc3cc(F)c(-c4ccc(OCCCN5CCCCC5)nc4)cc3c21 + Cc1cccc(N(C)C(=O)C2C(O)CCN2c2nc(C)cc(C(F)(F)F)c2C#N)c1", "recorded_measurement": 110}
{"molecule": "CC1COCCN1c1cc(C2(O)CC3CCC(C2)O3)c2cnn(-c3ccn[nH]3)c2n1 (stereo not given) + Nc1ccc(C#CCN(C(=O)Cc2ncc(C(F)(F)F)cc2C(F)(F)F)c2ccc(F)cc2)nn1", "recorded_measurement": 44.7}
{"molecule": "CC1COCCN1c1cc(C2(S(C)(=N)=O)CC2)nc(-c2ccnc3[nH]ccc23)n1 (stereo not given) + Cc1cccc(N(C)C(=O)C2C(O)CCN2c2nc(C)cc(C(F)(F)F)c2C#N)c1", "recorded_measurement": 109}
{"molecule": "O=c1[nH]cc(F)c(=O)[nH]1 + COC1C(OC(N)=O)C(O)C(Oc2ccc3c(O)c(NC(=O)c4ccc(O)c(CC=C(C)C)c4)c(=O)oc3c2C)OC1(C)C", "recorded_measurement": 117}

// moving on: another record for viability, T/C
Would you kindly share the measured viability, T/C for C=CC(=O)N1CCN(c2nc(=O)n(-c3c(C)ccnc3C(C)C)c3nc(-c4c(O)cccc4F)c(F)cc23)C(C)C1 (stereo not given) + Nc1ccc(C#CCN(C(=O)Cc2ncc(C(F)(F)F)cc2C(F)(F)F)c2ccc(F)cc2)nn1 ?
112

====

# System: 677734-321-R-J1-PDC complex spheroid viability
# assay_method_text: Anticancer human tumor 677734-321-R-J1-PDC cell line growth inhibition [POLQ]; active means viability on the fitted dose curve at most 10% of control; inactive means the rest;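 note: spheroids exposed to compounds for one week; 100% = vehicle DMSO treated spheroids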
# test_conditions: second compound 1 µM; first compound 0.1 µM
Outcome (select one): YES for active, NO for inactive

Here's what some known entries look like.
{"compound": "COc1cccc(OCCCN)c1-c1cc(Nc2cnc(C#N)cn2)n[nH]1 + Cc1cccc(N(C)C(=O)C2C(O)CCN2c2nc(C)cc(C(F)(F)F)c2C#N)c1", "group_label": "YES"}
{"compound": "COc1cccc2c1C(=O)c1c(O)c3c(c(O)c1C2=O)CC(O)(C(=O)CO)CC3OC1CC(N)C(O)C(C)O1 (stereo unspecified) + Nc1ccc(C#CCN(C(=O)Cc2ncc(C(F)(F)F)cc2C(F)(F)F)c2ccc(F)cc2)nn1", "group_label": "NO"}
{"compound": "C=CCn1c(=O)c2cnc(Nc3ccc(N4CCN(C)CC4)cc3)nc2n1-c1cccc(C(C)(C)O)n1 + Nc1ccc(C#CCN(C(=O)Cc2ncc(C(F)(F)F)cc2C(F)(F)F)c2ccc(F)cc2)nn1", "group_label": "NO"}
{"compound": "CCc1cc2c(N3CCc4c(cc(Cn5ccnc5)cc4-c4cn(C)nc4C(F)(F)F)C3=O)ccnc2c(OC)n1 + Cc1cccc(N(C)C(=O)C2C(O)CCN2c2nc(C)cc(C(F)(F)F)c2C#N)c1", "group_label": "NO"}
{"compound": "COc1cc(C2c3cc4c(cc3C(OC3OC5COC(C)OC5C(O)C3O)C3COC(=O)C23)OCO4)cc(OC)c1O (stereo unspecified) + Cc1cccc(N(C)C(=O)C2C(O)CCN2c2nc(C)cc(C(F)(F)F)c2C#N)c1", "group_label": "NO"}

How did this test come out for CNCc1ccc(-c2[nH]c3cc(F)cc4c3c2CCNC4=O)cc1 + Cc1cccc(N(C)C(=O)C2C(O)CCN2c2nc(C)cc(C(F)(F)F)c2C#N)c1 ?
NO

Which outcome was entered for the compound COc1ccc([C@@H](O)c2cc(-c3ncnc4cc(N5CCOCC5)ccc34)c(F)cc2Cl)nn1 + Nc1ccc(C#CCN(C(=O)Cc2ncc(C(F)(F)F)cc2C(F)(F)F)c2ccc(F)cc2)nn1 in this test?
NO

Status in this test for CC(C)n1c(=O)n(C)c2cnc3cc(F)c(-c4ccc(OCCCN5CCCCC5)nc4)cc3c21 + COC1C(OC(N)=O)C(O)C(Oc2ccc3c(O)c(NC(=O)c4ccc(O)c(CC=C(C)C)c4)c(=O)oc3c2C)OC1(C)C ?
NO

Please let me know the test result on file for C=CC(=O)N1CCN(c2nc(=O)n(-c3c(C)ccnc3C(C)C)c3nc(-c4c(O)cccc4F)c(F)cc23)C(C)C1 (stereo unspecified) + Nc1ccc(C#CCN(C(=O)Cc2ncc(C(F)(F)F)cc2C(F)(F)F)c2ccc(F)cc2)nn1 .
NO

Status in this test for O=C(Nc1ccc(O)c(NS(=O)(=O)c2ccc(F)cc2)c1)c1ccc(-c2ccccc2)cc1 + Nc1ccc(C#CCN(C(=O)Cc2ncc(C(F)(F)F)cc2C(F)(F)F)c2ccc(F)cc2)nn1 ?
NO

Per the records of this test, what outcome belongs to Nc1ccn(C2OC(CO)C(O)C2(F)F)c(=O)n1 (stereo unspecified) + Nc1ccc(C#CCN(C(=O)Cc2ncc(C(F)(F)F)cc2C(F)(F)F)c2ccc(F)cc2)nn1 ?
NO

Hey, just so you know, these numbers are from PubChem BioAssay AID1963842.
